Listed here: items and their measured pIC50.
- assay.system: Tyrosinase (TYR, EC1.14.18.1) from mushroom (Agaricus bisporus)
- Construct: purchased Sigma-Aldrich
- Sequence (C7FF04 1-392): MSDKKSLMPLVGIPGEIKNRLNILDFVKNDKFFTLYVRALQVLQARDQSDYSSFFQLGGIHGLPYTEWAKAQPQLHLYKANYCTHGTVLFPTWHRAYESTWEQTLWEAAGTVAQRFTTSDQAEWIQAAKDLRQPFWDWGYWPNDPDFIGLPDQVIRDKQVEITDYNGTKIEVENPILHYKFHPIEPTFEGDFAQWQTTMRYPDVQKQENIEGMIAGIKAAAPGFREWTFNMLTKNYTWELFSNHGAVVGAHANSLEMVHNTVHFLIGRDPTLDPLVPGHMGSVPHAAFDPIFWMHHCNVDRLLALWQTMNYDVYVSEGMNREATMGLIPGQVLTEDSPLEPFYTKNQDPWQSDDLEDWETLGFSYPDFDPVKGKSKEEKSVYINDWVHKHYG
- protocol.text: Inhibition of diphenolase activity of tyrosinase with L-DOPA as substrate (spectroscopy at 475 nm; HPLC for catechin)
- Format: biochemical
- measurement.context: diphenolase activity, L-DOPA substrate, pH 6.5, 25 °C; read-out: IC50
API: returns pIC50 as number; meaning -log10 of concentration in mol/L.

compound	pIC50
Oc1cc(O)c2c(c1)OC(c1ccc(O)c(O)c1)C(O)C2 (single isomer, unassigned; (+)) [Catechin, (+)-catechin]	4.24

Now consider a different compound.
Specify measured pIC50 for O=C(OC1Cc2c(O)cc(O)cc2OC1c1cc(O)c(O)c(O)c1)c1cc(O)c(O)c(O)c1 (single isomer, unassigned; (-)) [EGCG, (−)-epigallocatechin-3-O-gallate] .
3.85
